- experimental-system: human H3 receptor (Homo sapiens)
pKi: −log10 of the molar value.
# cutoff 8 applies to pKi; >= gives met, < gives not met

Worked examples, 3 compounds total:
COc1ccc(C2CN(C)Cc3cc(OCCCNCC(C)C)ccc32)cc1 (centres unmarked) ... not met
COc1ccc(C2CN(C)Cc3cc(OCCCN4CC[C@@H](O)C4)ccc32)cc1 (some centres unmarked) ... met
COc1ccc(C2CN(C)Cc3cc(OC4CCN(C5CCOCC5)CC4)ccc32)cc1 (centres unmarked) ... met

QUERY: Quick check: does COc1ccc(C2CN(C)Cc3cc(OCCCN=C4N(C)CCCN4C)ccc32)cc1 (centres unmarked) have pKi greater than or equal to 8?
RESULT: not met

QUERY: Quick check: does COc1ccc(C2CN(C)Cc3cc(OCC4CCN(C(=O)C(F)(F)F)CC4)ccc32)cc1 (centres unmarked) have pKi greater than or equal to 8?
RESULT: not met

QUERY: Quick check: does COc1ccc(C2CN(CCF)Cc3cc(OCCCN4CCCCC4)ccc32)cc1 (centres unmarked) have pKi greater than or equal to 8?
RESULT: met

QUERY: Quick check: does COc1ccc(C2CN(C)Cc3cc(OCCCN4CCOC(CO)C4)ccc32)cc1 (centres unmarked) have pKi greater than or equal to 8?
RESULT: met

---

Entries with reported Ki on UniProt:P31645
Express the result in nM but write the number alone.

These solved cases illustrate the format of a correct answer.
COc1ccc(C2CN(C)Cc3cc(OCCCN4CCN(C(=O)C(C)C)CC4)ccc32)cc1 (stereo not drawn) ... 18
COc1ccc(C2CN(C)Cc3cc(OCC4CCN(CC(C)C)CC4)ccc32)cc1 (stereo not drawn) ... 5

// Ki lookup, molecule = COc1ccc(C2CN(C)Cc3cc(C#CCCN4CCC(F)(F)CC4)ccc32)cc1 (stereo not drawn) , result: 27

// Ki lookup, molecule = COc1ccc(C2CN(C)Cc3cc(OCCCN4[C@H](C)CC[C@H]4C)ccc32)cc1 (stereo partly drawn) , result: 5

// Ki lookup, molecule = COc1ccc(C2CN(C)Cc3cc(OCCCN4CC[C@@H](O)C4)ccc32)cc1 (stereo partly drawn) , result: 3

// Ki lookup, molecule = COc1ccc(C2CN(C)Cc3cc(OCCCN4CCC(C#N)CC4)ccc32)cc1 (racemic) [Example 37] , result: 6

// Ki lookup, molecule = CCOC(=O)N1CCN(CCCOc2ccc3c(c2)CN(C)CC3c2ccc(OC)cc2)CC1 (stereo not drawn) , result: 16

---

- experimental-system: Rat SERT (Rattus norvegicus, UniProt P31652)
- Construct: A rat brain without cerebellum (Zivic Laboratories, Inc.—Pittsburgh, Pa.) was homogenized; tissue Zivic Laboratories, Inc; host or cells: rat brain without cerebellum, membranes
- Sequence (P31652 whole entry): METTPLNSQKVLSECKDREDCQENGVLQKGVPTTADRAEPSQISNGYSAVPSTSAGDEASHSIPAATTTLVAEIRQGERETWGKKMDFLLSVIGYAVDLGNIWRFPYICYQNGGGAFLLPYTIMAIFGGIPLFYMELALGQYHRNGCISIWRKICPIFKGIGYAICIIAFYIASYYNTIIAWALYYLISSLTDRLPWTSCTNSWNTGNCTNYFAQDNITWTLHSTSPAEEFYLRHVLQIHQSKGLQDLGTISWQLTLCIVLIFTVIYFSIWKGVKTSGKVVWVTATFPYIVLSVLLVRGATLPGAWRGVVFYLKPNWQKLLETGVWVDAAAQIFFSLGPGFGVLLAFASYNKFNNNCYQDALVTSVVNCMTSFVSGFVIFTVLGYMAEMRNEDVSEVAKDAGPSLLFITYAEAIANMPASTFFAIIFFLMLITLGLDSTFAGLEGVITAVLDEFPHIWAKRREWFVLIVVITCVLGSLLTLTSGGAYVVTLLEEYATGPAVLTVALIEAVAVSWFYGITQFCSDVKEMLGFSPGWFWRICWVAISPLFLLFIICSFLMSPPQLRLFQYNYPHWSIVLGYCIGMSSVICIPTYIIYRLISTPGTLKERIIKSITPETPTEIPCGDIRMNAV
- protocol-description: Rat brain SERT binding ([3H]-citalopram displacement)
- condition-info: rat brain membranes without cerebellum, 0.6 nM [3H]-citalopram, 60 min at 25° C.; read-out: Rat SERT Ki
parameter-measured: Ki (nM)
Express the result in nM but write the number alone.

These solved cases illustrate the format of a correct answer.
CSc1ccc(C2CN(C)Cc3cc(OCC4CN(C(C)C)CCO4)ccc32)cc1 (mixture of isomers) ... 5
COc1ccc(C2CN(C)Cc3cc(OCCCN4CC[C@@H](N(C)C)C4)ccc32)cc1 (stereo in doubt) ... 4
COc1ccc(C2CN(C)Cc3cc(OCCCN4CCC(F)CC4)ccc32)cc1F (single isomer, unassigned) [Example 143] ... 18

// Ki lookup, molecule = CN1Cc2cc(OCCCN3CCC(F)CC3)ccc2C(c2ccc(Cl)cc2)C1 (stereo not shown) , result: 27

---

Entries with reported Ki on human SERT (Homo sapiens)
Sequence (P31645 whole entry): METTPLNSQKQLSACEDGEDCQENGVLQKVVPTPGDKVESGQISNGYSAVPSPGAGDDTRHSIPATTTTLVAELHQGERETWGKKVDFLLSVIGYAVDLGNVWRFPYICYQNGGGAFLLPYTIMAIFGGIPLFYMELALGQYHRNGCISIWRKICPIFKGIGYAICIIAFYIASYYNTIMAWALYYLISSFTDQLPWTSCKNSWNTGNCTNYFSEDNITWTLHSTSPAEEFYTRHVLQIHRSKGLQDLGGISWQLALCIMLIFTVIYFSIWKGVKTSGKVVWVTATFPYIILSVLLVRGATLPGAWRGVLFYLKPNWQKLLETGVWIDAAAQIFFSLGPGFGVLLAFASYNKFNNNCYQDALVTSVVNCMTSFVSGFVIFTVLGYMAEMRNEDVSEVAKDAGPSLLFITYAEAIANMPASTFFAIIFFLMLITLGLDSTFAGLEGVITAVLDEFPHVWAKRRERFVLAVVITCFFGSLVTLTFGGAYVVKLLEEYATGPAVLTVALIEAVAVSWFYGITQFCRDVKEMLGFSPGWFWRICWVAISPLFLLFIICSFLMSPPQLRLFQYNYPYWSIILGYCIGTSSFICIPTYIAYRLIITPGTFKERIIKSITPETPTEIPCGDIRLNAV

CCN1Cc2cc(OCCCN3CCC(F)CC3)ccc2C(c2ccc(OC)cc2)C1 (centres unmarked) ... 12 nM
COc1ccc(C2CN(C)Cc3cc(OCC4CCN(C)CC4)ccc32)cc1 (centres unmarked) ... 7 nM
CN1Cc2cc(OCCCN3CCOCC3)ccc2C(c2ccc(OC(F)F)cc2)C1 (centres unmarked) ... 12 nM

The reported Ki value, human SERT (Homo sapiens), for COc1ccc(C2CN(C)Cc3cc(CCCCN4CCN(C(C)C)CC4)ccc32)cc1 (centres unmarked) reads 7 nM

---

- experimental-system: human H3 receptor (Homo sapiens)
parameter-measured: log10 of Ki (log10 of the value in nM)
Units before log transform: nM; reported quantity: Ki; transform: log10.

COc1ccc(C2CNCc3cc(OCCCN4CCC(F)CC4)ccc32)cc1 (stereo not shown) ... 0.95
CN1Cc2cc(OCCCN3CCCCC3)ccc2C(c2ccc(C(F)(F)F)cc2)C1 (stereo not shown) ... 0.30

// log10 of Ki lookup, compound = COc1cccc(C2CN(C)Cc3cc(OC4CCN(C5CCCC5)CC4)ccc32)c1 (stereo not shown) , result: 0.30

// log10 of Ki lookup, compound = COc1ccc(C2CN(C)Cc3cc(OCCC4CCCN4C)ccc32)cc1 (single isomer, unassigned) [Example 240A] , result: 0.48

---

- experimental-system: Rat SERT (Rattus norvegicus)
- Construct: A rat brain without cerebellum (Zivic Laboratories, Inc.—Pittsburgh, Pa.) was homogenized; tissue Zivic Laboratories, Inc; host or cells: rat brain without cerebellum, membranes
- protocol-description: Rat brain SERT binding ([3H]-citalopram displacement)
- condition-info: rat brain membranes without cerebellum, 0.6 nM [3H]-citalopram, 60 min at 25° C.; read-out: Rat SERT Ki
pKi: −log10 of the molar value.
# cutoff 8 applies to pKi; >= gives rule met, < gives rule not met

Worked examples, 3 molecules total:
COc1ccc(C2CN(C)Cc3cc(OCCCN4CCCCC4CCO)ccc32)cc1 (centres unmarked) ... rule met
c1cncc(C2CNCc3cc(CCCCN4CCCCC4)ccc32)c1 (centres unmarked) ... rule not met
CN1Cc2cc(OCCCN3CCC(F)CC3)ccc2C(c2cccc(F)c2)C1 (centres unmarked) ... rule not met

Consider the record given below.
QUERY: Quick check: does COc1ccc(C2CN(C)Cc3cc(OCCCN4CCCCC4CO)ccc32)cc1 (centres unmarked) have pKi greater than or equal to 8?
RESULT: rule met

---

- experimental-system: human H3 receptor (Homo sapiens, UniProt Q9Y5N1)
- Sequence (Q9Y5N1 whole entry): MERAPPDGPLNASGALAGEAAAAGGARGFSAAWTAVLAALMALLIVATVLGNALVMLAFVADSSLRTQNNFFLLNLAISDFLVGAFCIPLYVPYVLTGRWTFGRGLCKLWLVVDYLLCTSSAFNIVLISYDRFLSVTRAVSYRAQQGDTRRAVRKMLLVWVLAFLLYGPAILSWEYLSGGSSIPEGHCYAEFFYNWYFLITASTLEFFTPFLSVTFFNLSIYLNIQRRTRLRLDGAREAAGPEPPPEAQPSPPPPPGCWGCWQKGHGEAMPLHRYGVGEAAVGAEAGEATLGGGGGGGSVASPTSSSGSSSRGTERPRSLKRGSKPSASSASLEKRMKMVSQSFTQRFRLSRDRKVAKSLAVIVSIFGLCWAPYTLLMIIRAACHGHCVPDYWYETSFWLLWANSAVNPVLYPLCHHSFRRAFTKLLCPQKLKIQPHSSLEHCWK
parameter-measured: Ki (nM)
Express the result in nM but write the number alone.

These solved cases illustrate the format of a correct answer.
COc1ccc(C2CN(C)Cc3cc(OCCC4CCCN4C)ccc32)cc1 (mixture of isomers) [Example 240] ... 4
CN1Cc2cc(OCCCN3CCC(F)CC3)ccc2C(c2ccc(C#N)cc2)C1 (stereo not drawn) [Example 136] ... 4

The reported Ki value, human H3 receptor (Homo sapiens, UniProt Q9Y5N1), for CN1Cc2cc(OCCCN3CCC(F)CC3)ccc2C(c2ccc(Sc3ncccn3)nc2)C1 (stereo not drawn) [Example 196] reads 4

---

Overview of recorded Kb for various compounds
- experimental-system: human H3 receptor (Homo sapiens, UniProt Q9Y5N1)
- Construct: expressed in transfected cells
- protocol-description: Cyclic AMP accumulation (β-galactosidase reporter, Schild analysis)
- Format: cell-based
- condition-info: SK-N-MC cells expressing human H3 receptor and CRE-β-galactosidase reporter; histamine agonist, forskolin 5 μM; Schild regression of pEC50 values; read-out: pA2 (converted)
Express the result in nM but write the number alone.

CN1Cc2cc(OCCCN3CCC(F)CC3)ccc2C(c2ccc(Br)cc2)C1 (centres unmarked) ... 10
CSc1ccc(C2CN(C)Cc3cc(OCC4CN(C5CC5)CCO4)ccc32)cc1 (mixture of isomers) ... 7.94
COc1ccc(C2CN(C)Cc3cc(OCCCN4CCCC(O)C4)ccc32)cc1 (mixture of isomers) ... 1
COc1ccc(C2CN(C)Cc3cc(OCCCN4[C@H](C)CC[C@H]4C)ccc32)cc1 (some centres unmarked) ... 0.398
COc1ccc(C2CN(C)Cc3cc(OCCCN4CCC(C#N)CC4)ccc32)cc1 (racemic) [Example 37] ... 6.31

// Kb lookup, compound = COc1ccc(C2CN(C)Cc3cc(OCC4CCN(C(C)C)CC4)ccc32)cc1 (centres unmarked) , result: 1.26

// Kb lookup, compound = CN1Cc2cc(OCCCN3CCCCC3)ccc2C(c2ccsc2)C1 (centres unmarked) , result: 0.1

---

- experimental-system: Rat SERT (Rattus norvegicus, UniProt P31652)
- Construct: A rat brain without cerebellum (Zivic Laboratories, Inc.—Pittsburgh, Pa.) was homogenized; tissue Zivic Laboratories, Inc; host or cells: rat brain without cerebellum, membranes
- protocol-description: Rat brain SERT binding ([3H]-citalopram displacement)
- condition-info: rat brain membranes without cerebellum, 0.6 nM [3H]-citalopram, 60 min at 25° C.; read-out: Rat SERT Ki
Overview of recorded pKi for various molecules
Value format note: pKi is -log10 of concentration (mol/L); just state the number.

These solved cases illustrate the format of a correct answer.
CN1Cc2cc(CCCCN3CCCCC3)ccc2C(c2cccnc2)C1 (stereo not shown) ... 7.33
COc1ccc(C2CNCc3cc(OCCCN4CCC(F)CC4)ccc32)cc1 (stereo not shown) ... 7.74
CCCN1CCC(COc2ccc3c(c2)CN(C)CC3c2ccc(OC)c(Cl)c2)CC1 (stereo not shown) ... 7.89

The reported pKi value, Rat SERT (Rattus norvegicus, UniProt P31652), for COc1ccc(C2CN(C)Cc3cc(CCCCN4CCOCC4)ccc32)cc1 (stereo not shown) reads 8.22

The reported pKi value, Rat SERT (Rattus norvegicus, UniProt P31652), for CSc1ccc(C2CN(C)Cc3cc(OC4CCN(CC#N)CC4)ccc32)cc1 (stereo not shown) reads 8.15

The reported pKi value, Rat SERT (Rattus norvegicus, UniProt P31652), for COc1cccc(C2CN(C)Cc3cc(OCC4CCN(C)CC4)ccc32)c1 (stereo not shown) reads 7.92

The reported pKi value, Rat SERT (Rattus norvegicus, UniProt P31652), for COc1ccc(C2CN(C)Cc3cc(OCCCN4CCN(c5ccccc5O)CC4)ccc32)cc1 (stereo not shown) reads 8.10
